Readings of composite z-score for the listed molecules
target: Alpha-bungarotoxin (Bungarus multicinctus); assay: compounds binding labelled alpha-BTX control protein – biochemical, small-molecule microarray, Alexa647 label, 635/667 nm fluorescence, artefact control for SMM control protein annotation, profiling panel (AID 1117); conditions: alpha-BTX-A647 binding fluorescence, higher = more signal
// return a plain number; no unit text

Use the examples below as a reference point.
CCOC(=O)C1=C[C@@H](C(C)(C)C)N(S(=O)(=O)c2ccc(C)cc2)[C@H]1c1ccc(C#N)cc1    1.09
CC(C)C[C@H]1NC(=O)C([C@@H](C)OCc2ccccc2)NC(=O)[C@@]23C(=O)N[C@@H](Cc4ccccc4)C2[C@H](C)[C@@]2(C)O[C@H]2C3/C=C/C/C=C\CNC1=O (stereo partly drawn)    0.888
CCC(CC)C(O)C1C=CC2C(=O)N(c3ccccc3)C(=O)C2N1Nc1ccccc1F (stereo not drawn)    1.39
O=C(NC1CC1)[C@@H]1c2ccccc2C(=O)N(Cc2cc(C(F)(F)F)cc(C(F)(F)F)c2)[C@H]1c1ccc(CO)cc1    0.955
O=C1N(CCS(=O)(=O)c2ccccc2)c2ccccc2C[C@]12N=C(c1ccc(OCCCO)cc1)O[C@@H]2c1ccccc1    1.91

// composite z-score (Alpha-bungarotoxin (Bungarus multicinctus)) for CCCN1C(=O)[C@@]2(c3ccc([N+](=O)[O-])cc3)CC(=O)N(CC34CC5CC(CC(C5)C3)C4)[C@@H]2c2ccc(CO)cc21 = -0.0061

# composite z-score measured on Alpha-bungarotoxin (Bungarus multicinctus) for item CN(C)CCCC[C@@H]1NC(=O)[C@@H]2C[C@H](C(=O)NCCCCCN)[C@H](c3cccc(OCCO)c3)N2C1=O = 0.293

###

experiment: small molecules captured by biotinylated probe aFGF2 – biochemical, small-molecule microarray, fluorescence 635/667, stem cell growth factor project, primary screen (AID 1067); conditions: higher = more signal;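 note: measures binding of biotinylated aFGF2 protein to printed compounds on slides; z-score merges feature fluorescence and signal-to-noise across triplicate slides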
observed_property: composite z-score
Enter the number alone.

Completed entries (count: 5):
O=C1C2C=CC(C(O)c3c(F)cccc3Cl)N(Nc3ccc([N+](=O)[O-])cc3)C2C(=O)N1c1ccccc1 (stereo not given)    0.147
CC(C)OC(=O)CC(=O)CC(O)c1cccc([N+](=O)[O-])c1 (stereo not given)    -0.0028
O=C1C2C=CC(C(O)C3CCCCC3)N(n3cnnc3)C2C(=O)N1Cc1ccccc1 (stereo not given)    0.0498
O=C1O[C@@H](c2ccccc2)[C@@H](c2ccccc2)N2[C@@H](c3ccc(OCCO)cc3)[C@]3(C(=O)Nc4ccc(C#CCCO)cc43)[C@@H](C(=O)O)[C@H]12    0.213
COC(=O)[C@]1(CCC(=O)OC(C)(C)C)N=C(c2ccc(OCCCO)cc2)O[C@@H]1c1ccccc1N=[N+]=[N-]    -0.132

Data point: COC(=O)[C@@]1(Cc2ccccc2)[C@H]2c3cc(C(=O)N(C)C)n(Cc4ccc(C(F)(F)F)nc4)c3C[C@H]2CN1C(=O)c1ccccc1 ; composite z-score = 0.233

composite z-score reading for CCCc1cc2c(n1CCc1ccc(Cl)cc1)C(C)C1CN(C(=O)c3ccccc3)C(C)(C(=O)OC)C21 (stereo not given) : 0.384

Entry CC1CC/C=C\[C@H]2OC34C=CCN(CCN5CCOCC5)C(=O)[C@H]3N(CCCO)C(=O)[C@@H]4C2C(=O)O1 (stereo not given in full) ; composite z-score = -0.183

Please fill in: composite z-score reported for O=C1[C@H]2C=C(I)[C@H](C[C@@H]2OCCCCCCO)[C@@]12CO2 = -0.169

Form field composite z-score, entry Cc1ccc(S[C@]2(C(=O)NCc3ccccc3)CC(=O)N(Cc3ccccc3C(F)(F)F)[C@@H]2c2ccc(CO)cc2)cc1 : -0.105

Summary for this molecule, COCCOC(=O)N1C(=O)[C@@]2(c3cc(C#CCCO)ccc31)[C@H](c1ccccc1OCCO)N1[C@H](c3ccccc3)[C@H](c3ccccc3)OC(=O)[C@H]1[C@@H]2C(N)=O : composite z-score is -0.0723

In plain terms, COc1ccc(C(O)C2C=CC3C(=O)N(c4ccccc4)C(=O)C3N2Nc2ccc(C#N)cc2)cc1OCc1ccccc1 (stereo not given) has a documented composite z-score of 0.19

Reported composite z-score ( COCCn1c(C(=O)N(C)C)cc2c1C[C@H]1CN(C(=O)c3ccccc3)[C@@](Cc3ccc(OC)cc3)(C(=O)OC)[C@@H]21 ) = -0.19

Lab book: composite z-score of COC(=O)[C@@]1(Cc2ccc(F)cc2)[C@H]2c3cc(C(=O)N(C)C)n(CCc4ccc(O)c(O)c4)c3C[C@H]2CN1C(=O)c1ccccc1 noted as 0.187

Quick note, composite z-score for C=C(/C(=C/C[C@@H](OC(C)=O)c1cccc(OCCO)c1)c1cnc2ccccc2c1)C(C)C landed at -0.0242

###

Here the recorded composite z-score is given for each entry.
molecular target: Left-right determination factor 2 (Homo sapiens) (UniProt O00292); assay: small molecules binding LEFTY2 protein – biochemical, small-molecule microarray, 635 nm fluorescence scan, primary screen (AID 1110); conditions: higher = more signal
Sequence (O00292 whole entry, looked up): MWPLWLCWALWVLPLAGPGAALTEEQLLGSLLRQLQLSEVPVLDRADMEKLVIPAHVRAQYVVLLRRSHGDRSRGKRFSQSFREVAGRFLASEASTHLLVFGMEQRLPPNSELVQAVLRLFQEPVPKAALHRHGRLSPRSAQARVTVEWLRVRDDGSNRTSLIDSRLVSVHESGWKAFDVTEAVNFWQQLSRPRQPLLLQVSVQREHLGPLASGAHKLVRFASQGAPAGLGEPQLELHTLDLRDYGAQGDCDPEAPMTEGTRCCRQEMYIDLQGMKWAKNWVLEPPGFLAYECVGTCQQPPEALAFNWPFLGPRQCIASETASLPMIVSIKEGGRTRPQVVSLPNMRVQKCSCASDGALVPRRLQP
// return a plain number; no unit text

Consider the reported composite z-score for these compounds:
COc1ccc(C(=O)Nc2cccc(CN3C(=O)[C@]4(O[C@H](CC(=O)N5Cc6ccccc6C[C@H]5CO)[C@@H]([Si](C)(C)c5ccc(OC)cc5)[C@@H]4C)c4ccccc43)c2)cc1    1.05
CCCCCCc1nc(Cc2cc(OC)c(OC)c(OC)c2)cc2c1[Si](C(C)C)(C(C)C)O[C@H]2c1ccccc1    0.851
Cc1ccc(S[C@]2(C(=O)NCCCN(C)C)CC(=O)N(C3Cc4ccccc4C3)[C@@H]2c2ccc(CO)cc2I)cc1    -1.11
COc1ccc([Si](C)(C)[C@H]2[C@H](CCO)O[C@@]3(C(=O)N(Cc4ccc(NC(=O)[C@H](C)O)cc4)c4ccccc43)[C@@H]2C)cc1    0.378
C=C1C(=O)C=C2CN(C(=O)c3ccccc3)[C@@](Cc3ccc(OC)cc3)(C(=O)OC)[C@@H]12    -0.135

Entry CO[C@H]1O[C@H](CO)[C@@H](OC(=O)Nc2ccccc2-c2ccccc2)[C@H](OC(=O)Nc2ccccc2)[C@H]1OC(=O)Nc1ccccc1 ; composite z-score = 0.732

Record summary for CC(C)(C)OC(=O)CC[C@]1(C(=O)NCC(O)CO)N=C(c2ccc(OCCCO)cc2)O[C@H]1c1ccccc1N=[N+]=[N-] (stereo not given in full) : reported composite z-score = 0.0607

For reference, reported composite z-score for CC1CC/C=C\[C@H]2OC34C=CCN(CCN5CCOCC5)C(=O)[C@H]3N(CCCO)C(=O)[C@@H]4C2C(=O)O1 (stereo not given in full) stands at -0.573

###

tested on: Wnt5a (protein binding on small-molecule microarray); test: small molecules binding Wnt5a protein – biophysical, small-molecule microarray, 635/667 nm fluorescence, primary screen (AID 1142); conditions: 635 nm fluorescence, higher = more signal;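 note: fluorescence read at 667 nm with signal to noise per printed feature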
observed_property: composite z-score
Form: value (number only, do not type unit).

// solved cases for composite z-score follow
CO[C@H]1O[C@H](CO)[C@@H](OC(=O)Nc2ccccc2)[C@H](OC(=O)Nc2ccccc2)[C@H]1OC(=O)Nc1ccccc1    0.664
CN(C)C(=O)[C@@]1(Cc2ccccc2CN=[N+]=[N-])COC(c2ccc(OCCCO)cc2)=N1    0.0037
[N-]=[N+]=Nc1ccccc1C[C@@]1(C(=O)NCC(O)CO)N=C(c2ccc(OCCCO)cc2)O[C@@H]1c1ccccc1 (some centres not stated)    0.674
COCCCNC(=O)[C@@]1(Sc2ccc(C)cc2)CC(=O)N(Cc2ccccc2C(F)(F)F)[C@@H]1c1ccc(CO)cc1I    -0.249
COC(=O)[C@@]1(Cc2ccc(OC)cc2)[C@H]2c3cc(C(=O)N4CCCC4)n(Cc4ccc(Cl)c(C(F)(F)F)c4)c3C[C@H]2CN1C(=O)c1ccccc1    0.344
COc1ccc([Si](C)(C)[C@H]2[C@H](CC(=O)N3CCC[C@H]3CO)O[C@@]3(C(=O)N(Cc4ccc(N5CCCCC5=O)cc4)c4ccccc43)[C@@H]2C)cc1    0.567

Let's switch to this molecule now.
Lab note: CCOC(=O)C[C@H]1[C@H](OC(=O)Cc2ccc3c(c2)OCO3)[C@@H](NC(=O)c2ccc3ccccc3n2)c2cc(OCCCO)ccc2N1C(=O)Cc1ccc(OC)cc1 gave composite z-score of 0.0586

###

experiment: probe aNOTCH3 binding on compound microarray – biochemical, small-molecule microarray, 635/667 nm fluorescence, primary screen (AID 1120); conditions: higher = more signal;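 note: probe is a biotin-tagged antibody raised against NOTCH3 rather than NOTCH3 protein; score merges spot fluorescence near 667 nm with spot signal to noise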
Kind request: treat 0.002 as inclusive, so composite z-score at 0.002 or higher is 1.0, anything lower is 0.0.

Worked examples, 5 molecules total:
O=C1O[C@@H](c2ccccc2)[C@@H](c2ccccc2)N2[C@@H](c3ccccc3OCCO)[C@]3(C(=O)Nc4ccc(C#CCCO)cc43)[C@@H](C(=O)NC[C@H](O)c3ccccc3)[C@H]12    1.0
C=CCC(OC(C)=O)[C@@H]1[C@@H](N(Cc2cccc3ccccc23)C(=O)Cc2ccc(OC)cc2)c2cc(OCCCO)ccc2N1C(=O)c1ccc2ccccc2c1 (stereo partly specified)    1.0
COc1ccc([Si](C)(C)[C@@H]2[C@@H](CC(=O)N3Cc4ccccc4C[C@H]3CO)O[C@]3(C(=O)N(Cc4cccc(N5CCOC5=O)c4)c4ccccc43)[C@H]2C)cc1    0.0
CC(C)(C)N1CC=CC23O[C@@H]4/C=C\CCCOC(=O)C4[C@H]2C(=O)N(CCCCCO)[C@@H]3C1=O (stereo partly specified)    0.0
O=C1C[C@@](C(=O)NC2CC2)(c2ccc([N+](=O)[O-])cc2)[C@@H](c2ccc(CO)cc2)N1C1CCCCC1    1.0

Kindly review the next molecule as well.
Input line: Dear colleague, could you confirm whether NC(=O)NCC#Cc1ccc2c(c1)[C@]1(C(=O)N2)[C@H](c2ccc(OCCO)cc2)N2[C@H](c3ccccc3)[C@H](c3ccccc3)OC(=O)[C@H]2[C@@H]1C(=O)NC[C@H](O)c1ccccc1 has composite z-score at or above 0.002?
Output line: 1.0
